target-or-system: SARS-CoV-2 Mpro (Severe acute respiratory syndrome coronavirus 2, UniProt P0DTD1)
method: RapidFire MS substrate peptide activity assay
Assay type: biochemical
pIC50: −log10 of the molar value.

# compound, target-or-system, pIC50
measured = [
    ("C=CS(=O)(=O)N1N=C(c2cc(Cl)ccc2F)C(c2ccccc2)C1c1ccc2nccnc2c1 (stereo not shown) [PM-2-071]", "SARS-CoV-2 Mpro (Severe acute respiratory syndrome coronavirus 2, UniProt P0DTD1)", "> 8.70"),
]

###

target-or-system: SARS-CoV-1 Mpro (Severe acute respiratory syndrome-related coronavirus)
method: biochemical

# compound, IC50 / nM
measured = [
    ("O=C(CCl)N1N=C(c2ccccc2)CC1c1cccc2nccnc12 (racemic) [EN82]", 59),
]

###

target-or-system: HCoV-HKU1 Mpro (Human coronavirus HKU1 (isolate N1), UniProt P0C6X2)
method: biochemical
Sequence (P0C6X2 3335-3637): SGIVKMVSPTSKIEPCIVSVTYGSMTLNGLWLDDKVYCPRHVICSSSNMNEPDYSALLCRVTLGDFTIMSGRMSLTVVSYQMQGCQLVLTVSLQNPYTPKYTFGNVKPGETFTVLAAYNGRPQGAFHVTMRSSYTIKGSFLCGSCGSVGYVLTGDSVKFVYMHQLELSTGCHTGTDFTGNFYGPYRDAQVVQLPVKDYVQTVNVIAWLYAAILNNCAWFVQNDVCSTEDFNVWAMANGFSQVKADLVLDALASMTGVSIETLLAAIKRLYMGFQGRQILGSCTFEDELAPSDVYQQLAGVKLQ
pIC50: −log10 of the molar value.

# compound, pIC50
data = [
    ("O=C(CCl)N1N=C(c2ccccc2)[C@H](c2ccccc2)[C@@H]1c1ccc2nccnc2c1 (relative stereo) [HW-1-187B, cis-HW-1-187B]", 7.80),
    ("O=C(CCl)N1N=C(c2ccccc2)[C@H](c2ccccc2)[C@@H]1c1ccccc1 (relative stereo) [PM-2-020B, cis-PM-02-020B]", 6.70),
]

###

target-or-system: HCoV-HKU1 Mpro (Human coronavirus HKU1 (isolate N1), UniProt P0C6X2)
method: RapidFire MS substrate peptide activity assay
Format: biochemical

# compound, IC50
records = [
    ("C=CS(=O)(=O)N1N=C(c2cc(Cl)ccc2F)C(c2ccccc2)C1c1ccc2nccnc2c1 (stereo not shown)", "< 2 nM"),
]

###

target-or-system: SARS-CoV-2 Mpro (Severe acute respiratory syndrome coronavirus 2)
method: biochemical
pIC50: −log10 of the molar value.
Measured pIC50, listed per entry for reference.

# compound, pIC50
rows = [
    ("O=C(CCl)N1N=C(c2cc(F)cc(Cl)c2)CC1c1cccc2nccnc12 (stereo not drawn)", 8.80),
    ("O=C(CCl)N1N=C(c2ccccc2)CC1c1cccnc1 (stereo not drawn)", 7.24),
    ("O=C(CCl)N1N=C(c2cccc(Cl)c2)CC1c1cccc2nccnc12 (stereo not drawn)", 9.05),
]

###

Measured pIC50, listed per entry for reference.
target-or-system: SARS-CoV-2 Mpro (Severe acute respiratory syndrome coronavirus 2)
method: rhodamine-based substrate peptide activity assay
Assay type: biochemical
pIC50: −log10 of the molar value.

# molecule, pIC50
data = [
    ("O=C(CCl)N1N=C(c2ccccc2)CC1c1cccc2nccnc12 (racemic)", 7.04),
    ("C=CS(=O)(=O)N1N=C(c2cc(Cl)ccc2F)[C@@H](c2ccccc2)[C@H]1c1ccc2nccnc2c1 [(S,S)-PM-2-071, (S,S)-enantiomer of PM-2-071B]", 7.46),
    ("O=C(CCl)N1N=C(c2ccccc2)[C@H](c2ccccc2)[C@@H]1c1ccccc1 (relative stereo) [PM-2-020B, cis-PM-02-020B]", 7.21),
    ("O=C(CCl)N1N=C(c2ccccc2)[C@H](c2ccccc2)[C@@H]1c1ccc2nccnc2c1 (relative stereo) [HW-1-187B, cis-HW-1-187B]", 7.66),
    ("O=C(CCl)N1N=C(c2cc(Cl)ccc2F)[C@H](c2ccccc2)[C@@H]1c1ccc2nccnc2c1 (relative stereo) [HW-2-010B]", 7.85),
    ("C=CS(=O)(=O)N1N=C(c2cc(Cl)ccc2F)[C@H](c2ccccc2)[C@@H]1c1ccc2nccnc2c1 (relative stereo) [PM-2-071B]", 7.04),
]

###

target-or-system: PorCoV-HKU15 Mpro (Porcine coronavirus HKU15, UniProt H9BQY4)
Sequence (H9BQY4 2509-2811 limits assumed): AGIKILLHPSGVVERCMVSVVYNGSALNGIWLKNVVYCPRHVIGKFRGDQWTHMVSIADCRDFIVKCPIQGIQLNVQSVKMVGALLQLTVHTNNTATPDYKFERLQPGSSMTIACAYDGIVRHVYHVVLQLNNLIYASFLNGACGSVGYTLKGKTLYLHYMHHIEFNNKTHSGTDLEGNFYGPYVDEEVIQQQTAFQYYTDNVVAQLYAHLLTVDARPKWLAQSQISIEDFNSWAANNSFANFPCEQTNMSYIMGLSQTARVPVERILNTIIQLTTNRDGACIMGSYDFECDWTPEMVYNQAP
test-settings: read-out: PM-2-20A (trans); covalent
metric-name: IC50 (µM)

# molecule, target-or-system, reading-unit, recorded-value
records = [
    ("O=C(CCl)N1N=C(c2ccccc2)[C@H](c2ccccc2)[C@H]1c1ccccc1 (relative stereo) [PM-2-20A (trans)]", "PorCoV-HKU15 Mpro (Porcine coronavirus HKU15, UniProt H9BQY4)", "µM", 4.8),
]

###

target-or-system: HCoV-NL63 Mpro (Human coronavirus NL63, UniProt P0C6X5)
method: biochemical
test-settings: read-out: PM-2-27A (trans); covalent
Sequence (P0C6X5 2940-3242 limits assumed): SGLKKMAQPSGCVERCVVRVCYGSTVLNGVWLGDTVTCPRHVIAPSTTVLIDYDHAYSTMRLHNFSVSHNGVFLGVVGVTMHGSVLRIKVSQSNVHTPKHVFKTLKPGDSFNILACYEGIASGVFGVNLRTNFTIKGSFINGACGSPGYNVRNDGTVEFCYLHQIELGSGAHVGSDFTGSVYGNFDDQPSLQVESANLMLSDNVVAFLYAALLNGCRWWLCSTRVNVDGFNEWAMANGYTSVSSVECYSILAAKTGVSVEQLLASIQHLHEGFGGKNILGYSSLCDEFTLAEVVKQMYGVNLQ

# compound, IC50 [nM]
data = [
    ("O=C(CCl)N1N=C(c2ccccc2)[C@H](c2ccccc2)[C@H]1c1cccc2nccnc12 (relative stereo) [PM-2-27A (trans)]", 92),
]

###

target-or-system: HCoV-HKU1 Mpro (Human coronavirus HKU1 (isolate N1), UniProt P0C6X2)
method: biochemical
test-settings: read-out: HW-1-87A (trans); covalent
Sequence (P0C6X2 3335-3637 limits assumed): as the sequence (P0C6X2 3335-3637) above
pIC50: −log10 of the molar value.

# compound, target-or-system, pIC50
data = [
    ("O=C(CCl)N1N=C(c2ccccc2)[C@H](c2ccccc2)[C@H]1c1ccc2nccnc2c1 (relative stereo) [HW-1-87A (trans)]", "HCoV-HKU1 Mpro (Human coronavirus HKU1 (isolate N1), UniProt P0C6X2)", 7.40),
]

###

target-or-system: SARS-CoV-2 Mpro (Severe acute respiratory syndrome coronavirus 2)
method: biochemical
test-settings: read-out: hidden head, 8th column; covalent
metric-name: IC50

# compound, recorded-value
rows = [
    ("O=C(CCl)N1N=C(c2ccccc2)CC1c1ccnc2[nH]ccc12 (stereo not shown)", "20 nM"),
]

###

target-or-system: SARS-CoV-1 Mpro (Severe acute respiratory syndrome-related coronavirus)
method: biochemical
pIC50: −log10 of the molar value.
metric-name: pIC50

# compound, metric-name, recorded-value
records = [
    ("C=CS(=O)(=O)N1N=C(c2cc(Cl)ccc2F)C(c2ccccc2)C1c1ccc2nccnc2c1 (stereo not shown)", "pIC50", "> 6.00"),
]

###

target-or-system: HCoV-NL63 Mpro (Human coronavirus NL63, UniProt P0C6X5)
method: RapidFire MS substrate peptide activity assay
Format: biochemical
Sequence (P0C6X5 2940-3242): as the sequence (P0C6X5 2940-3242 limits assumed) above
metric-name: IC50

# molecule, recorded-value
data = [
    ("C=CS(=O)(=O)N1N=C(c2cc(Cl)ccc2F)C(c2ccccc2)C1c1ccc2nccnc2c1 (stereo not shown) [PM-2-071]", "< 1 µM"),
]

###

target-or-system: PorCoV-HKU15 Mpro (Porcine coronavirus HKU15, UniProt H9BQY4)
test-settings: read-out: HW-1-187B (cis); covalent
pIC50: −log10 of the molar value.
metric-name: pIC50

# compound, recorded-value
data = [
    ("O=C(CCl)N1N=C(c2ccccc2)[C@H](c2ccccc2)[C@@H]1c1ccc2nccnc2c1 (relative stereo) [HW-1-187B, cis-HW-1-187B]", 5.20),
]

###

target-or-system: UniProt:P0C6X1
method: biochemical
test-settings: read-out: HW-1-87A (trans); covalent

# molecule, target-or-system, IC50 [nM]
measured = [
    ("O=C(CCl)N1N=C(c2ccccc2)[C@H](c2ccccc2)[C@H]1c1ccc2nccnc2c1 (relative stereo) [HW-1-87A (trans)]", "UniProt:P0C6X1", 30),
]

###

target-or-system: SARS-CoV-2 Mpro (Severe acute respiratory syndrome coronavirus 2, UniProt P0DTD1)
method: biochemical
test-settings: read-out: PM-2-27A (trans); covalent
pIC50: −log10 of the molar value.
metric-name: pIC50

# compound, target-or-system, metric-name, recorded-value
records = [
    ("O=C(CCl)N1N=C(c2ccccc2)[C@H](c2ccccc2)[C@H]1c1cccc2nccnc12 (relative stereo) [PM-2-27A (trans)]", "SARS-CoV-2 Mpro (Severe acute respiratory syndrome coronavirus 2, UniProt P0DTD1)", "pIC50", 6.96),
]

###

target-or-system: HCoV-229E Mpro (Human coronavirus 229E)
Sequence (P0C6X1 2966-3267 limits assumed): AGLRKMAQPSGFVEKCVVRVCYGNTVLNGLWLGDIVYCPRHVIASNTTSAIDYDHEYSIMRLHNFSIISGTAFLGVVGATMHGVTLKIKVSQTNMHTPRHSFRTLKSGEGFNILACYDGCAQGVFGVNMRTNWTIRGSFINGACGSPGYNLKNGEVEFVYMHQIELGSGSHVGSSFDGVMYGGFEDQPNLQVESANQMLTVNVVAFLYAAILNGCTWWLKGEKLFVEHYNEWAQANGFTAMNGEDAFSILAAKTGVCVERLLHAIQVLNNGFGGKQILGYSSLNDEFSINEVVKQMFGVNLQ
method: biochemical
test-settings: read-out: PM-2-20A (trans); covalent
metric-name: IC50 (nM)

# compound, metric-name, reading-unit, recorded-value
measured = [
    ("O=C(CCl)N1N=C(c2ccccc2)[C@H](c2ccccc2)[C@H]1c1ccccc1 (relative stereo) [PM-2-20A (trans)]", "IC50", "nM", 3.6),
]

###

target-or-system: SARS-CoV-2 Mpro (Severe acute respiratory syndrome coronavirus 2)
method: Mpro substrate activity assay
Assay type: biochemical
metric-name: IC50 (nM)

# molecule, recorded-value
rows = [
    ("O=C(CCl)N1N=C(c2ccccc2)C[C@H]1c1cccc2nccnc12 [(S)-EN82]", 2700),
]

###

target-or-system: UniProt:P0C6X1
method: biochemical
test-settings: read-out: hidden head, 8th column; covalent

# compound, reading-unit, IC50
data = [
    ("O=C(CCl)N1N=C(c2ccccc2)CC1c1ccnc2[nH]ccc12 (stereo not shown)", "nM", 19),
]

###

target-or-system: avian infectious bronchitis virus (IBV) Mpro (Avian infectious bronchitis virus (strain Beaudette))
Sequence (P0C6Y1 2780-3086): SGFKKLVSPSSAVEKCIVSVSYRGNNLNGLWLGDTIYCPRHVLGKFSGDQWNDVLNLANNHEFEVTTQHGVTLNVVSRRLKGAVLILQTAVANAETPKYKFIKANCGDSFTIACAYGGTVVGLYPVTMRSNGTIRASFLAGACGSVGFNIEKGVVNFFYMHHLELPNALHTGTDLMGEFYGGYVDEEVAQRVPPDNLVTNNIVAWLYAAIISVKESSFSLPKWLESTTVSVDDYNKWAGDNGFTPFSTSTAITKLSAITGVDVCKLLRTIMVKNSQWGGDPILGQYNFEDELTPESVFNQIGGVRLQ
method: RapidFire MS substrate peptide activity assay
Assay type: biochemical
pIC50: −log10 of the molar value.

# compound, pIC50
measured = [
    ("C=CS(=O)(=O)N1N=C(c2cc(Cl)ccc2F)C(c2ccccc2)C1c1ccc2nccnc2c1 (stereo not shown) [PM-2-071]", "> 6.00"),
]

These entries and their values trace back to paper doi:10.1101/2022.03.05.483025v1.
